# TARGET OR TEST SYSTEM: POPG LUVs
# PROCEDURE SUMMARY: Isothermal titration calorimetry, binding to POPG LUVs
# RUN PARAMETERS: ITC, 25 °C, 0.05 or 0.07 mM peptide titrated with 1.3 or 1.8 mM POPG LUVs; one set of sites model (C10-LL-I: two sets of sites, first line)
Residues, ends and D or L forms follow the SMILES beside them. *: point of attachment. Decanoyl = CCCCCCCCCC(=O)*; Octanoyl = CCCCCCCC(=O)*
MEASURED PROPERTY: pKITC, POPG
Output: the number by itself.

CCCCCCCC(=O)N[C@@H](CCCCN)C(=O)N[C@@H](CCCNC(=N)N)C(=O)N[C@@H](Cc1ccccc1)C(=O)N[C@@H](CCCCN)C(=O)N[C@@H](CCCCN)C(=O)N[C@@H](Cc1ccccc1)C(=O)N[C@@H](Cc1ccccc1)C(=O)N[C@@H](CCCCN)C(=O)N[C@@H](CCCCN)C(=O)N[C@@H](CC(C)C)C(=O)N[C@@H](CCCCN)C(N)=O [C8-ATRA-1] (Octanoyl-KRFKKFFKKLK-NH2) : 5.78
CCCCCCCC(=O)N[C@H](C(=O)N[C@@H](CC(N)=O)C(=O)N[C@@H](Cc1c[nH]c2ccccc12)C(=O)N[C@@H](CCCCN)C(=O)N[C@@H](CCCCN)C(=O)N[C@H](C(=O)N[C@@H](CC(C)C)C(=O)NCC(=O)N[C@@H](CCCCN)C(=O)N[C@H](C(=O)N[C@H](C(=O)N[C@@H](CCCCN)C(=O)N[C@H](C(=O)N[C@@H](C)C(=O)N[C@@H](CCCCN)C(N)=O)C(C)C)[C@@H](C)CC)[C@@H](C)CC)C(C)C)C(C)C [C8-LL-I] (Octanoyl-VNWKKVLGKIIKVAK-NH2) : 3.98
CCCCCCCCCC(=O)N[C@H](C(=O)N[C@@H](CC(N)=O)C(=O)N[C@@H](Cc1c[nH]c2ccccc12)C(=O)N[C@@H](CCCCN)C(=O)N[C@@H](CCCCN)C(=O)N[C@H](C(=O)N[C@@H](CC(C)C)C(=O)NCC(=O)N[C@@H](CCCCN)C(=O)N[C@H](C(=O)N[C@H](C(=O)N[C@@H](CCCCN)C(=O)N[C@H](C(=O)N[C@@H](C)C(=O)N[C@@H](CCCCN)C(N)=O)C(C)C)[C@@H](C)CC)[C@@H](C)CC)C(C)C)C(C)C [C10-LL-I] (Decanoyl-VNWKKVLGKIIKVAK-NH2) : 6.02

We now examine a further molecule.
### Prompt Determine reported pKITC, POPG for CCCCCCCC(=O)N[C@H](C(=O)N[C@@H](CCCCN)C(=O)N[C@@H](CCCCN)C(=O)N[C@H](C(=O)N[C@@H](CC(C)C)C(=O)N[C@@H](CO)C(=O)N[C@@H](CCCCN)C(=O)N[C@H](C(=O)N[C@@H](CCCCN)C(=O)N[C@@H](CCCCN)C(=O)N[C@@H](CC(C)C)C(=O)N[C@@H](CC(C)C)C(=O)N[C@@H](CCCCN)C(N)=O)[C@@H](C)CC)[C@@H](C)CC)[C@@H](C)CC [C8-LK6] (Octanoyl-IKKILSKIKKLLK-NH2) ; test system: POPG LUVs.
### Response 6.31

---

Each entry below carries its reported θ222/θ208, POPC.
# Test system: POPC liposomes
# PROCEDURE SUMMARY: CD, α-helix content in POPC liposomes
# Type: physicochemical
# RUN PARAMETERS: 25 °C, peptide 0.15 mg/mL, 1.3 mM POPC
Residues, ends and D or L forms follow the SMILES beside them. *: point of attachment. Decanoyl = CCCCCCCCCC(=O)*; Octanoyl = CCCCCCCC(=O)*
Output: the number by itself.

Answered examples (3):
CCCCCCCCCC(=O)N[C@@H](CCCCN)C(=O)N[C@@H](CCCNC(=N)N)C(=O)N[C@@H](Cc1ccccc1)C(=O)N[C@@H](CCCCN)C(=O)N[C@@H](CCCCN)C(=O)N[C@@H](Cc1ccccc1)C(=O)N[C@@H](Cc1ccccc1)C(=O)N[C@@H](CCCCN)C(=O)N[C@@H](CCCCN)C(=O)N[C@@H](CC(C)C)C(=O)N[C@@H](CCCCN)C(N)=O [C10-ATRA-1] (Decanoyl-KRFKKFFKKLK-NH2) : 0.65
CCCCCCCC(=O)N[C@@H](CCCCN)C(=O)N[C@@H](CCCNC(=N)N)C(=O)N[C@@H](Cc1ccccc1)C(=O)N[C@@H](CCCCN)C(=O)N[C@@H](CCCCN)C(=O)N[C@@H](Cc1ccccc1)C(=O)N[C@@H](Cc1ccccc1)C(=O)N[C@@H](CCCCN)C(=O)N[C@@H](CCCCN)C(=O)N[C@@H](CC(C)C)C(=O)N[C@@H](CCCCN)C(N)=O [C8-ATRA-1] (Octanoyl-KRFKKFFKKLK-NH2) : 0.38
CCCCCCCCCC(=O)N[C@H](C(=O)N[C@@H](CC(N)=O)C(=O)N[C@@H](Cc1c[nH]c2ccccc12)C(=O)N[C@@H](CCCCN)C(=O)N[C@@H](CCCCN)C(=O)N[C@H](C(=O)N[C@@H](CC(C)C)C(=O)NCC(=O)N[C@@H](CCCCN)C(=O)N[C@H](C(=O)N[C@H](C(=O)N[C@@H](CCCCN)C(=O)N[C@H](C(=O)N[C@@H](C)C(=O)N[C@@H](CCCCN)C(N)=O)C(C)C)[C@@H](C)CC)[C@@H](C)CC)C(C)C)C(C)C [C10-LL-I] (Decanoyl-VNWKKVLGKIIKVAK-NH2) : 0.88

### Prompt Determine reported θ222/θ208, POPC for CCCCCCCC(=O)N[C@H](C(=O)N[C@@H](CCCCN)C(=O)N[C@@H](CCCCN)C(=O)N[C@H](C(=O)N[C@@H](CC(C)C)C(=O)N[C@@H](CO)C(=O)N[C@@H](CCCCN)C(=O)N[C@H](C(=O)N[C@@H](CCCCN)C(=O)N[C@@H](CCCCN)C(=O)N[C@@H](CC(C)C)C(=O)N[C@@H](CC(C)C)C(=O)N[C@@H](CCCCN)C(N)=O)[C@@H](C)CC)[C@@H](C)CC)[C@@H](C)CC [C8-LK6] (Octanoyl-IKKILSKIKKLLK-NH2) ; test system: POPC liposomes.
### Response 0.82

### Prompt Determine reported θ222/θ208, POPC for CCCCCCCC(=O)N[C@H](C(=O)N[C@@H](CC(N)=O)C(=O)N[C@@H](Cc1c[nH]c2ccccc12)C(=O)N[C@@H](CCCCN)C(=O)N[C@@H](CCCCN)C(=O)N[C@H](C(=O)N[C@@H](CC(C)C)C(=O)NCC(=O)N[C@@H](CCCCN)C(=O)N[C@H](C(=O)N[C@H](C(=O)N[C@@H](CCCCN)C(=O)N[C@H](C(=O)N[C@@H](C)C(=O)N[C@@H](CCCCN)C(N)=O)C(C)C)[C@@H](C)CC)[C@@H](C)CC)C(C)C)C(C)C [C8-LL-I] (Octanoyl-VNWKKVLGKIIKVAK-NH2) ; test system: POPC liposomes.
### Response 0.85

---

# TARGET OR TEST SYSTEM: POPG LUVs
# PROCEDURE SUMMARY: Isothermal titration calorimetry, binding to POPG LUVs
# RUN PARAMETERS: ITC, 25 °C, 0.05 or 0.07 mM peptide titrated with 1.3 or 1.8 mM POPG LUVs; one set of sites model (C10-LL-I: two sets of sites, first line)
Residues, ends and D or L forms follow the SMILES beside them. *: point of attachment. Decanoyl = CCCCCCCCCC(=O)*
MEASURED PROPERTY: pKITC, POPG
Output: the number by itself.

### Prompt Determine reported pKITC, POPG for CCCCCCCCCC(=O)N[C@@H](CCCCN)C(=O)N[C@@H](CCCNC(=N)N)C(=O)N[C@@H](Cc1ccccc1)C(=O)N[C@@H](CCCCN)C(=O)N[C@@H](CCCCN)C(=O)N[C@@H](Cc1ccccc1)C(=O)N[C@@H](Cc1ccccc1)C(=O)N[C@@H](CCCCN)C(=O)N[C@@H](CCCCN)C(=O)N[C@@H](CC(C)C)C(=O)N[C@@H](CCCCN)C(N)=O [C10-ATRA-1] (Decanoyl-KRFKKFFKKLK-NH2) ; test system: POPG LUVs.
### Response 7.06

---

# Test system: S. epidermidis PCM2118
# Format: cell-based, Staphylococcus epidermidis
# RUN PARAMETERS: PCM2118, 24 h
Residues, ends and D or L forms follow the SMILES beside them. *: point of attachment. Lauroyl = CCCCCCCCCCCC(=O)*; Octanoyl = CCCCCCCC(=O)*
MEASURED PROPERTY: MIC, S. epidermidis PCM2118 (µg/mL)
Your answer is read as µg/mL, so omit the unit and give the number.

CCCCCCCC(=O)N[C@H](C(=O)N[C@@H](CCCCN)C(=O)N[C@@H](CCCCN)C(=O)N[C@H](C(=O)N[C@@H](CC(C)C)C(=O)N[C@@H](CO)C(=O)N[C@@H](CCCCN)C(=O)N[C@H](C(=O)N[C@@H](CCCCN)C(=O)N[C@@H](CCCCN)C(=O)N[C@@H](CC(C)C)C(=O)N[C@@H](CC(C)C)C(=O)N[C@@H](CCCCN)C(N)=O)[C@@H](C)CC)[C@@H](C)CC)[C@@H](C)CC [C8-LK6] (Octanoyl-IKKILSKIKKLLK-NH2) : 6.25

### Prompt Determine reported MIC, S. epidermidis PCM2118 for CCCCCCCCCCCC(=O)N[C@H](C(=O)N[C@@H](CCCCN)C(=O)N[C@@H](CCCCN)C(=O)N[C@H](C(=O)N[C@@H](CC(C)C)C(=O)N[C@@H](CO)C(=O)N[C@@H](CCCCN)C(=O)N[C@H](C(=O)N[C@@H](CCCCN)C(=O)N[C@@H](CCCCN)C(=O)N[C@@H](CC(C)C)C(=O)N[C@@H](CC(C)C)C(=O)N[C@@H](CCCCN)C(N)=O)[C@@H](C)CC)[C@@H](C)CC)[C@@H](C)CC [C12-LK6] (Lauroyl-IKKILSKIKKLLK-NH2) ; test system: S. epidermidis PCM2118.
### Response 6.25
